Reported z-score values for the following molecules.
tested on: Neuropilin-2 / VEGF-C interaction (human); assay: small molecules blocking Neuropilin-2/VEGF-C interaction – biochemical, microplate binding format, z-score (AID 743281); conditions: microplate NRP2/VEGF-C binding assay; active compounds read low; further: test concentration not given here
Calls of active or inactive are those of the source. How the calls were made is not given here.
quantity: z-score

molecule: CCOC(=O)[C@H](CCc1ccccc1)N[C@@H](C)C(=O)N1[C@H](C(=O)O)C[C@@H]2CCC[C@@H]21
result: -0.497 (inactive)
//
molecule: Cn1c(NCCN(CCO)CCCc2ccc([N+](=O)[O-])cc2)cc(=O)n(C)c1=O
result: 0.0586 (inactive)
//
molecule: CCN1CCC[C@H]1CNC(=O)c1c(O)c(Cl)cc(Cl)c1OC
result: -0.335 (inactive)
//
molecule: CCOC(=O)C1=C(C)NC(C)=C(C(=O)OCC)C1c1ccccc1/C=C/C(=O)OC(C)(C)C
result: -0.248 (inactive)
//
molecule: O=C1c2cccc3c2[C@H](CCC3)CN1[C@@H]1CN2CCC1CC2
result: -0.136 (inactive)
//
molecule: CC(Cc1ccccc1)(NC(=O)CN)c1ccccc1 (stereo unspecified)
result: 1.57 (inactive)
//
molecule: CC(=O)Nc1ccc(CC(=O)O)cc1
result: -0.00496 (inactive)
//
molecule: Nc1nnc(-c2cccc(Cl)c2Cl)c(N)n1
result: -0.624 (inactive)
//
molecule: CNNCc1ccc(C(=O)NC(C)C)cc1
result: -0.83 (inactive)
//
molecule: Cc1cccc(C)c1NC(=O)C(C)N (stereo unspecified)
result: -0.227 (inactive)
